Test: BIC plasma pharmacokinetics, Phase 1 open-label single-dose DDI study GS-US-380-3909 (B/F/TAF 50/200/25 mg with antacid or mineral supplements)
Assay type: in vivo, human
Settings: both sexes, human, plasma, oral, Cohort 3 fed; B/F/TAF with calcium carbonate simultaneous; N = 14; read-out: Cmax, test GLSM

# molecule, Cmax / ng/mL
records = [
    ("O=C(NCc1c(F)cc(F)cc1F)c1cn2c(c(O)c1=O)C(=O)N1[C@H]3CC[C@H](C3)O[C@@H]1C2 [BIC, bictegravir]", 4070),
]

====

Experiment: BIC plasma pharmacokinetics, Phase 1 open-label single-dose DDI study GS-US-380-3909 (B/F/TAF 50/200/25 mg with antacid or mineral supplements)
Type: in vivo, human
Settings: both sexes, human, plasma, oral, BIC T1/2, median (Q1, Q3), Cohort 2 fasted; B/F/TAF 2 hours after aluminum/magnesium-containing antacid; N = 13

# smiles_string, half-life, h
rows = [
    ("O=C(NCc1c(F)cc(F)cc1F)c1cn2c(c(O)c1=O)C(=O)N1[C@H]3CC[C@H](C3)O[C@@H]1C2", 24.2),
]

====

Test: BIC plasma pharmacokinetics, Phase 1 open-label single-dose DDI study GS-US-380-3909 (B/F/TAF 50/200/25 mg with antacid or mineral supplements)
Type: in vivo, human
Conditions: both sexes, human, plasma, oral, BIC plasma Cmax, mean (%CV), Cohort 1 fasted; B/F/TAF + ferrous fumarate simultaneous; N = 14
reported_endpoint: Cmax (ng/mL)

# smiles_string, reported_endpoint, unit_info, measured_value
data = [
    ("O=C(NCc1c(F)cc(F)cc1F)c1cn2c(c(O)c1=O)C(=O)N1[C@H]3CC[C@H](C3)O[C@@H]1C2", "Cmax", "ng/mL", 1670),
]

====

Assay: BIC plasma pharmacokinetics, Phase 1 open-label single-dose DDI study GS-US-380-3909 (B/F/TAF 50/200/25 mg with antacid or mineral supplements)
Type: in vivo, human
Details: both sexes, human, plasma, oral, BIC T1/2, median (Q1, Q3), Cohort 1 fasted; B/F/TAF + aluminum/magnesium-containing antacid simultaneous; N = 14

# molecule, unit_info, half-life
data = [
    ("O=C(NCc1c(F)cc(F)cc1F)c1cn2c(c(O)c1=O)C(=O)N1[C@H]3CC[C@H](C3)O[C@@H]1C2 [BIC, bictegravir]", "h", 20.2),
]

====

Assay: BIC plasma pharmacokinetics, Phase 1 open-label single-dose DDI study GS-US-380-3909 (B/F/TAF 50/200/25 mg with antacid or mineral supplements)
Type: in vivo, human
Details: both sexes, human, plasma, oral, Cohort 2 fasted; B/F/TAF 2 h after aluminum/magnesium-containing antacid; N = 14; read-out: Cmax, test GLSM

# smiles_string, Cmax (µg/mL)
rows = [
    ("O=C(NCc1c(F)cc(F)cc1F)c1cn2c(c(O)c1=O)C(=O)N1[C@H]3CC[C@H](C3)O[C@@H]1C2", 2.43),
]

====

Experiment: BIC plasma pharmacokinetics, Phase 1 open-label single-dose DDI study GS-US-380-3909 (B/F/TAF 50/200/25 mg with antacid or mineral supplements)
Assay type: in vivo, human
Conditions: both sexes, human, plasma, oral, Cohort 2 fasted; BIC alone (N = 14); read-out: AUCinf, reference GLSM

# compound, AUC(0-inf), µg·h/mL
records = [
    ("O=C(NCc1c(F)cc(F)cc1F)c1cn2c(c(O)c1=O)C(=O)N1[C@H]3CC[C@H](C3)O[C@@H]1C2 [BIC, bictegravir]", 128),
]

====

Experiment: BIC plasma pharmacokinetics, Phase 1 open-label single-dose DDI study GS-US-380-3909 (B/F/TAF 50/200/25 mg with antacid or mineral supplements)
Assay type: in vivo, human
Details: both sexes, human, plasma, oral, BIC plasma AUCinf, mean (%CV), Cohort 1 fasted; B/F/TAF + calcium carbonate simultaneous; N = 14

# smiles_string, AUC(0-inf) / ng·h/mL
records = [
    ("O=C(NCc1c(F)cc(F)cc1F)c1cn2c(c(O)c1=O)C(=O)N1[C@H]3CC[C@H](C3)O[C@@H]1C2", 85000),
]

====

Experiment: BIC plasma pharmacokinetics, Phase 1 open-label single-dose DDI study GS-US-380-3909 (B/F/TAF 50/200/25 mg with antacid or mineral supplements)
Format: in vivo, human
Settings: both sexes, human, plasma, oral, BIC T1/2, median (Q1, Q3), Cohort 2 fasted; B/F/TAF 2 hours before aluminum/magnesium-containing antacid; N = 13

# smiles_string, half-life, h
measured = [
    ("O=C(NCc1c(F)cc(F)cc1F)c1cn2c(c(O)c1=O)C(=O)N1[C@H]3CC[C@H](C3)O[C@@H]1C2", 21.8),
]

====

Assay: BIC plasma pharmacokinetics, Phase 1 open-label single-dose DDI study GS-US-380-3909 (B/F/TAF 50/200/25 mg with antacid or mineral supplements)
Assay type: in vivo, human
Conditions: both sexes, human, plasma, oral, Cohort 3; BIC alone (N = 14), fasted; read-out: AUCinf, reference GLSM
reported_endpoint: AUC(0-inf) (ng·h/mL)

# compound, reported_endpoint, measured_value
records = [
    ("O=C(NCc1c(F)cc(F)cc1F)c1cn2c(c(O)c1=O)C(=O)N1[C@H]3CC[C@H](C3)O[C@@H]1C2 [BIC, bictegravir]", "AUC(0-inf)", 89900),
]

====

Assay: BIC plasma pharmacokinetics, Phase 1 open-label single-dose DDI study GS-US-380-3909 (B/F/TAF 50/200/25 mg with antacid or mineral supplements)
Format: in vivo, human
Settings: both sexes, human, plasma, oral, BIC plasma C24, mean (%CV), Cohort 3; B/F/TAF alone (fasted); N = 14

# smiles_string, concentration at 24 h
records = [
    ("O=C(NCc1c(F)cc(F)cc1F)c1cn2c(c(O)c1=O)C(=O)N1[C@H]3CC[C@H](C3)O[C@@H]1C2", "1410 ng/mL"),
]

====

Experiment: BIC plasma pharmacokinetics, Phase 1 open-label single-dose DDI study GS-US-380-3909 (B/F/TAF 50/200/25 mg with antacid or mineral supplements)
Type: in vivo, human
Conditions: both sexes, human, plasma, oral, BIC plasma AUClast, mean (%CV), Cohort 2 fasted; B/F/TAF 2 hours before aluminum/magnesium-containing antacid; N = 13

# compound, AUC(0-t), µg·h/mL
rows = [
    ("O=C(NCc1c(F)cc(F)cc1F)c1cn2c(c(O)c1=O)C(=O)N1[C@H]3CC[C@H](C3)O[C@@H]1C2 [BIC, bictegravir]", 111),
]

====

Experiment: BIC plasma pharmacokinetics, Phase 1 open-label single-dose DDI study GS-US-380-3909 (B/F/TAF 50/200/25 mg with antacid or mineral supplements)
Format: in vivo, human
Settings: both sexes, human, plasma, oral, BIC plasma AUClast, mean (%CV), Cohort 1 fasted; B/F/TAF + ferrous fumarate simultaneous; N = 14
Method: Eligible participants were adult (18–45 years) males and non-pregnant, non-lactating females in good general health at a screening evaluation performed no more than 28 days before the first study dose. […] Full eligibility criteria are available in the supplement. […] Three dosing cohorts were evaluated (Table 1). […] All samples were analyzed within the timeframe determined using frozen stability storage data. […]

# smiles_string, AUC(0-t) [ng·h/mL]
records = [
    ("O=C(NCc1c(F)cc(F)cc1F)c1cn2c(c(O)c1=O)C(=O)N1[C@H]3CC[C@H](C3)O[C@@H]1C2", 43400),
]

====

Experiment: BIC plasma pharmacokinetics, Phase 1 open-label single-dose DDI study GS-US-380-3909 (B/F/TAF 50/200/25 mg with antacid or mineral supplements)
Assay type: in vivo, human
Settings: both sexes, human, plasma, oral, Cohort 2 fasted; BIC alone (N = 14); read-out: Cmax, reference GLSM
reported_endpoint: Cmax

# molecule, reported_endpoint, measured_value
measured = [
    ("O=C(NCc1c(F)cc(F)cc1F)c1cn2c(c(O)c1=O)C(=O)N1[C@H]3CC[C@H](C3)O[C@@H]1C2 [BIC, bictegravir]", "Cmax", "5840 ng/mL"),
]

====

Assay: BIC plasma pharmacokinetics, Phase 1 open-label single-dose DDI study GS-US-380-3909 (B/F/TAF 50/200/25 mg with antacid or mineral supplements)
Type: in vivo, human
Conditions: both sexes, human, plasma, oral, Cohort 3 fed; B/F/TAF with aluminum/magnesium-containing antacid simultaneous; N = 14; read-out: AUCinf, test GLSM
Experimental: Eligible participants were adult (18–45 years) males and non-pregnant, non-lactating females in good general health at a screening evaluation performed no more than 28 days before the first study dose. […] Full eligibility criteria are available in the supplement. […] Three dosing cohorts were evaluated (Table 1). […] All samples were analyzed within the timeframe determined using frozen stability storage data. […]

# smiles_string, unit_info, AUC(0-inf)
data = [
    ("O=C(NCc1c(F)cc(F)cc1F)c1cn2c(c(O)c1=O)C(=O)N1[C@H]3CC[C@H](C3)O[C@@H]1C2", "ng·h/mL", 47900),
]

// provenance: paper PMC12777568
